Measured IC50 by item
molecular target: UniProt:P9WGR1

Consider the following illustrative entries.
Qu. Please report the measured IC50 for `c1ccc(Oc2ccc(-c3nnc(-c4ccccc4)o3)cc2)cc1`
Ans. > 100 µM

Qu. Entry `O=[N+]([O-])c1ccc(-c2nnc(-c3ccc(Oc4ccccc4)cc3)o2)cc1` needs its IC50 filled in; supply it.
Ans. 68.4 µM

Qu. Could you please provide reported IC50 for `O=C(N/N=C/c1cccc2ccccc12)c1ccc(Oc2ccccc2)cc1` ? Thanks!
Ans. 4.23 µM

Qu. Answer with the recorded IC50 for the compound listed here: `COc1ccc(/C=N/NC(=O)c2ccc(Oc3ccccc3)cc2)cc1`
Ans. 75.5 µM

We next turn to a different compound, shown below.
Qu. Provide only the value of recorded IC50 for `O=C(N/N=C/c1ccccc1)c1ccc(Oc2ccccc2)cc1`
Ans. 73.2 µM

----------
The following molecules are shown together with reported melting point values.

Qu. For `c1ccc(Oc2ccc(-c3nnc(-c4cccnc4)o3)cc2)cc1` , write its melting point.
Ans. 143 to 144 °C

Qu. Return the recorded melting point value; entry: `c1ccc(Oc2ccc(-c3nnc(-c4cccc5ccccc45)o3)cc2)cc1`
Ans. 173 to 175 °C

Qu. Read the entry `O=C(N/N=C/c1cccs1)c1ccc(Oc2ccccc2)cc1` and write its reported melting point.
Ans. 182 to 183 °C

Qu. Write down melting point measured for item `c1ccc(Oc2ccc(-c3nnc(-c4cccs4)o3)cc2)cc1`
Ans. 139 to 141 °C

Qu. Note down melting point recorded for `COc1ccc(-c2nnc(-c3ccc(Oc4ccccc4)cc3)o2)cc1`
Ans. 226 to 228 °C

Qu. Note melting point for the molecule shown: `c1ccc(COc2ccc(-c3nnc(-c4ccc(Oc5ccccc5)cc4)o3)cc2)cc1`
Ans. 226 to 229 °C

Qu. Quick one: give measured melting point for `c1ccc(Oc2ccc(-c3nnc(-c4ccco4)o3)cc2)cc1`
Ans. 129 to 132 °C

Qu. Find the measured melting point of `c1ccc(Oc2ccc(-c3nnc(-c4ccccc4)o3)cc2)cc1` and report it.
Ans. 233 to 235 °C

***
Qu. Complete the entry with melting point for `O=C(N/N=C/c1ccncc1)c1ccc(Oc2ccccc2)cc1`
Ans. 175 to 177 °C

Qu. Specify measured melting point for `COc1cc(-c2nnc(-c3ccc(Oc4ccccc4)cc3)o2)cc(OC)c1OC` .
Ans. 250 to 253 °C

Qu. Quote melting point reported for `c1ccc(Oc2ccc(-c3nnc(-c4ccc(Oc5ccccc5)cc4)o3)cc2)cc1` please.
Ans. 232 to 234 °C

----------
Collected melting point values appear next to each entry.

For orientation, consider the following solved cases.
Qu. Identify the reported melting point for the following entry. `c1ccc(Oc2ccc(-c3nnc(-c4ccncc4)o3)cc2)cc1`
Ans. 125 to 127 °C

Qu. Provide melting point value for the following compound: `COc1cc(/C=N/NC(=O)c2ccc(Oc3ccccc3)cc2)cc(OC)c1OC`
Ans. 191 to 192 °C

Qu. Annotate the compound `O=C(N/N=C/c1cccnc1)c1ccc(Oc2ccccc2)cc1` with its measured melting point.
Ans. 149 to 151 °C

Qu. Answer with the recorded melting point for the compound listed here: `O=[N+]([O-])c1ccc(-c2nnc(-c3ccc(Oc4ccccc4)cc3)o2)cc1`
Ans. 226 to 228 °C

Kindly consider the entry below.
Qu. Recall and state the measured melting point for `O=C(N/N=C/c1ccccc1)c1ccc(Oc2ccccc2)cc1` .
Ans. 163 to 165 °C

----------
compounds and their reported pIC50
molecular target: InhA reductase enzyme (Mycobacterium tuberculosis, UniProt P9WGR1)
Sequence (P9WGR1 whole entry, looked up): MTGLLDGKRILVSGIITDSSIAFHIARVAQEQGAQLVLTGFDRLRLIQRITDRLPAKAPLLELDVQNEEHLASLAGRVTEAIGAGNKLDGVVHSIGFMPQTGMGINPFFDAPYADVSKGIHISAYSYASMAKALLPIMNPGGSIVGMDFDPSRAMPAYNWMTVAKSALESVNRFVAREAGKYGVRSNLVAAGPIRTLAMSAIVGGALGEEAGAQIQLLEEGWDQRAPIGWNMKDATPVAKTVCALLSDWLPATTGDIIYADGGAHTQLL
pIC50: −log10 of the molar value.

Qu. Would you please give the reported pIC50 of `COc1cc(-c2nnc(-c3ccc(Oc4ccccc4)cc3)o2)cc(OC)c1OC` with InhA reductase enzyme (Mycobacterium tuberculosis, UniProt P9WGR1)?
Ans. < 4.00

Qu. Look up and report measured pIC50 (InhA reductase enzyme (Mycobacterium tuberculosis, UniProt P9WGR1)) for the following compound: `COc1ccc(-c2nnc(-c3ccc(Oc4ccccc4)cc3)o2)cc1`
Ans. < 4.00

Then there is this compound:
Qu. GET pIC50 where system = InhA reductase enzyme (Mycobacterium tuberculosis, UniProt P9WGR1) and item = `COc1cc(/C=N/NC(=O)c2ccc(Oc3ccccc3)cc2)cc(OC)c1OC`
Ans. < 4.00

----------
Listing of entries alongside the reported melting point.

Qu. For `O=C(N/N=C/c1cccc2ccccc12)c1ccc(Oc2ccccc2)cc1` , write its melting point.
Ans. 193 to 195 °C

Qu. Input `COc1ccc(/C=N/NC(=O)c2ccc(Oc3ccccc3)cc2)cc1` , output reported melting point.
Ans. 233 to 235 °C

Qu. Give the reported value of melting point for this record: `O=C(N/N=C/c1ccc(OCc2ccccc2)cc1)c1ccc(Oc2ccccc2)cc1`
Ans. 228 to 231 °C

Qu. Give melting point for the following compound: `O=C(N/N=C/c1ccc(Cl)cc1)c1ccc(Oc2ccccc2)cc1`
Ans. 184 to 186 °C
